These measurements were taken from PubChem BioAssay.

System: Plasmodium falciparum Sir2 (PF13_0152, Sir2A)
Assay: pfSir2 binders on small-molecule microarrays, primary screen, biochemical, small-molecule microarray, 635 nm fluorescence (AID 1098);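 further: score merges spot fluorescence intensity with its signal-to-noise ratio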
Conditions: small-molecule microarray binding, fluorescence 635 nm; higher = more signal
Would you mind labelling by composite z-score? At or over 0.6 is true (1), under is false (0).

[
  {
    "compound": "C[C@]1(C(=O)NCc2ccccc2)c2ccccc2C(=O)N(Cc2cc(C(F)(F)F)cc(C(F)(F)F)c2)[C@H]1c1ccc(CO)cc1",
    "label_value": "true (1)"
  },
  {
    "compound": "NC(=O)NCC#Cc1ccc2c(c1)[C@]1(C(=O)N2)[C@H](C(N)=O)[C@H]2C(=O)O[C@H](c3ccccc3)[C@H](c3ccccc3)N2[C@@H]1c1ccccc1OCCO",
    "label_value": "true (1)"
  },
  {
    "compound": "C[N+](C)(C)CCCC[C@@H]1NC(=O)[C@H]2C[C@@H](C(=O)NCc3ccc(F)cc3)[C@@H](c3cccc(OCCO)c3)N2C1=O",
    "label_value": "false (0)"
  }
]

Check the entry O=C1C2C=CC(C(O)C#Cc3ccccc3)N(Nc3ccccc3)C2C(=O)N1c1ccccc1 (configuration not stated) : does composite z-score equal or exceed 0.6?
true (1)

// inclusive: composite z-score at least 0.6? input: C=CC[C@]1(C(=O)N2CCCCC2)N=C(c2ccc(OCCCO)cc2)O[C@H]1c1ccccc1N=[N+]=[N-]
true (1)

Is it the case that C=CCC(OC(C)=O)[C@@H]1[C@@H](N(Cc2cccc3ccccc23)C(=O)c2ccc(C)cc2)c2cc(OCCCO)ccc2N1C(=O)c1ccc(-c2ccccc2)cc1 (some centres not stated) has composite z-score reaching or exceeding 0.6?
false (0)

Say whether CCCC=C(CCC)[C@@H](NS(=O)(=O)c1ccc(C(F)(F)F)cc1)c1ccc(-c2ccccc2)cc1 shows composite z-score of 0.6 or more.
false (0)

====

Target: Neurogenic locus notch homolog protein 3 (Homo sapiens) (UniProt Q9UM47)
Sequence (Q9UM47 whole entry, looked up): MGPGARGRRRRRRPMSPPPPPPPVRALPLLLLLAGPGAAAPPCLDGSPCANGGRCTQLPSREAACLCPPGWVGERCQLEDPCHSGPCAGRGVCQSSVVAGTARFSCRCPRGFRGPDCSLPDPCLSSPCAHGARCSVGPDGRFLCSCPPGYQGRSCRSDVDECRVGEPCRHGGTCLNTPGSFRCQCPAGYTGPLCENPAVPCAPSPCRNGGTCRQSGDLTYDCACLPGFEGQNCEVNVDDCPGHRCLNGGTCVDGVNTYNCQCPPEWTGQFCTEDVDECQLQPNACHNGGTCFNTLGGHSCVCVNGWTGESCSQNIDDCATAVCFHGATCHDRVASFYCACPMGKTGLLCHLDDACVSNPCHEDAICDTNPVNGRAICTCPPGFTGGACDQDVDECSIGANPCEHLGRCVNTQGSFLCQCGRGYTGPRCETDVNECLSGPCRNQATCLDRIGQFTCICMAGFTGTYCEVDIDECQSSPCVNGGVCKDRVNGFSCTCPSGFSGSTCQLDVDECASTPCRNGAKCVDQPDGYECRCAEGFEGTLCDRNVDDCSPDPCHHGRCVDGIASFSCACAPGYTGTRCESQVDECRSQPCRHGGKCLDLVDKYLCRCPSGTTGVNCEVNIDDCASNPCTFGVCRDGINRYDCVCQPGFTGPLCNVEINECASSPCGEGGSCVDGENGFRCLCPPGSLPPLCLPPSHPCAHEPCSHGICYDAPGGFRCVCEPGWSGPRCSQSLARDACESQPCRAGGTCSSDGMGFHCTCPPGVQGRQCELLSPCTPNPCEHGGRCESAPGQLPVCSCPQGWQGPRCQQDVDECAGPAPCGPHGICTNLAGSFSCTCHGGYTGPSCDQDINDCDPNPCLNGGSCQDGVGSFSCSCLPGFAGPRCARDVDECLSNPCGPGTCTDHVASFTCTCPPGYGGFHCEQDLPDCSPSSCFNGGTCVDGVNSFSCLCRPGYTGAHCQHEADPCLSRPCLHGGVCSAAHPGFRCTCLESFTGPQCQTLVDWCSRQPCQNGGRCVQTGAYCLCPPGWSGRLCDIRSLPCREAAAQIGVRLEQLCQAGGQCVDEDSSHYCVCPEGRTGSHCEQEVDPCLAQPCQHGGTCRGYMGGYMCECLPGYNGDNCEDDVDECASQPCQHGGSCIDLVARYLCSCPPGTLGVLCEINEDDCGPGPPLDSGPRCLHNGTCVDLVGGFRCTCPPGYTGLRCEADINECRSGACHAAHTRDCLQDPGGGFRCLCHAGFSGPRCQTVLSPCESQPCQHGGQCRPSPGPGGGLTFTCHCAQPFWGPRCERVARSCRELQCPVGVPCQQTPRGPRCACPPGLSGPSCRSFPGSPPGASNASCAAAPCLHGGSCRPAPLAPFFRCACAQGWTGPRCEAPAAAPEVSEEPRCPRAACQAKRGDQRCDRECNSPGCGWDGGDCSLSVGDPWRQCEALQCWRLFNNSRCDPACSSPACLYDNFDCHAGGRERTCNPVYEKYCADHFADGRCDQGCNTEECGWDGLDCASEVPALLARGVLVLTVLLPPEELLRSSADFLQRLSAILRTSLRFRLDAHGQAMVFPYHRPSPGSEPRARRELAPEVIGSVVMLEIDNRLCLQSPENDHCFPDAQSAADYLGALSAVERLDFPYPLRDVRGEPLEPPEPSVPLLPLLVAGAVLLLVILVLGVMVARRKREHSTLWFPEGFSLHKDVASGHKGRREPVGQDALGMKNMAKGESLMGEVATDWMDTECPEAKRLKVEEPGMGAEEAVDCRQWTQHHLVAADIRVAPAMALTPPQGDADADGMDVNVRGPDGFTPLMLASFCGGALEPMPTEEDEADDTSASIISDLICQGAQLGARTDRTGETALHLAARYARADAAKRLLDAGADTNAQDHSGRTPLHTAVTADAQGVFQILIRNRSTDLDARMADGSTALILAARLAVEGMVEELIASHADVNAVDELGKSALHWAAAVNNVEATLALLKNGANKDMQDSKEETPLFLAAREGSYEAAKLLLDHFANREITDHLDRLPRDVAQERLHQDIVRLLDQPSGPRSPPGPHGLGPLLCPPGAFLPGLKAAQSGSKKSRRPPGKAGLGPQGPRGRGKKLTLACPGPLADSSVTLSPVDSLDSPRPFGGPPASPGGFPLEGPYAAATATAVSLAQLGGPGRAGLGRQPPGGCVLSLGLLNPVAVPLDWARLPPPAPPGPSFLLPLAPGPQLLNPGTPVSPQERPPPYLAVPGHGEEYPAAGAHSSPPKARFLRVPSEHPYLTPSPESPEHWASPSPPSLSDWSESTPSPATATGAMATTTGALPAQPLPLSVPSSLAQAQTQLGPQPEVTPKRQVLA
Assay: NOTCH3 binders on small-molecule microarray, primary screen, biochemical, 635/667 nm fluorescence (AID 1096)
Details: NOTCH3 binding, 635 nm fluorescence, higher = more signal
readout_name: composite z-score

Consider the reported composite z-score for these molecules:
[
  {
    "molecule_smiles": "[N-]=[N+]=NCc1ccccc1C[C@@]1(C(=O)O)N=C(c2ccc(OCCCO)cc2)O[C@@H]1c1ccccc1N=[N+]=[N-]",
    "readout_name": "composite z-score",
    "observed_measurement": 1.03
  },
  {
    "molecule_smiles": "O=C(CS)NCCCCCNC(=O)[C@H]1C[C@H]2C(=O)N3CCC[C@H]3C(=O)N2[C@H]1c1ccc(O)cc1",
    "readout_name": "composite z-score",
    "observed_measurement": -1.17
  },
  {
    "molecule_smiles": "CCN1C(C)=C(C(=O)OC)[C@@H](c2ccccc2)N2C(=O)[C@@]3(C(=O)OC)O[C@@]12[C@@H]1C(=O)N(C)C(=O)[C@@H]13",
    "readout_name": "composite z-score",
    "observed_measurement": 0.333
  },
  {
    "molecule_smiles": "CCN1C(C)=C(C(=O)OC)[C@@H](c2ccccc2)N2C(=O)[C@](O)(C(=O)OC)[C@@H](c3ccccc3)C(C(=O)c3ccccc3)=C12",
    "readout_name": "composite z-score",
    "observed_measurement": 0.685
  },
  {
    "molecule_smiles": "CC(C)[Si](OCC[C@H]1O[C@]2(C(=O)N(Cc3ccccc3)c3ccccc32)[C@@H](C)[C@@H]1[Si](C)(C)O)(C(C)C)C(C)C",
    "readout_name": "composite z-score",
    "observed_measurement": -0.0636
  }
]

Entry O=C(CS)NCCCCCNC(=O)[C@H]1C[C@H]2C(=O)N[C@@H](Cc3ccccc3)C(=O)N2[C@H]1c1ccc(O)cc1 ; composite z-score = 0.781

The molecule CC(=O)NCCCC[C@@H]1NC(=O)[C@@H]2C[C@H](C(=O)NCc3ccc(F)cc3)[C@H](c3cccc(OCCO)c3)N2C1=O showed composite z-score equal to -0.515

====

Target: NADPH oxidase 4 (Homo sapiens)
Experiment: NOX4-dependent H2O2 signal modulators, primary screen, NOX inhibitor project, cell-based, HEK293-NOX4, tetracycline-induced, Amplex Red fluorescence (AID 1160)
Conditions: 45 min, higher = more signal, called active from +8 up or from −8 down
Label class 1 for high-side z-score (at or above 0.02) and class 0 for low-side z-score (below it).

[
  {
    "molecule": "COC(=O)C[C@H]1O[C@]2(C(=O)N(Cc3ccccc3)c3ccc(I)cc32)[C@@H](C)[C@@H]1[Si](C)(C)c1ccc(OC)cc1",
    "label_value": "class 0"
  },
  {
    "molecule": "O=C(NCc1ccccc1)[C@@]1(CCS(=O)(=O)c2ccccc2)COC(c2ccc(OCCCO)cc2)=N1",
    "label_value": "class 0"
  },
  {
    "molecule": "CCCC=C(CCC)[C@@H](NS(=O)(=O)c1cccc(C(F)(F)F)c1)c1ccc(C(=O)OC)cc1",
    "label_value": "class 1"
  },
  {
    "molecule": "CC(C)[Si](OCC[C@H]1O[C@]2(C(=O)N(Cc3ccccc3)c3ccccc32)[C@@H](C)[C@@H]1[Si](C)(C)O)(C(C)C)C(C)C",
    "label_value": "class 0"
  },
  {
    "molecule": "COCCOC(=O)N1C(=O)[C@@]2(c3ccccc31)[C@H](C(=O)N1CCc3cc(OC)c(OC)cc3C1)[C@H]1C(=O)O[C@H](c3ccccc3)[C@H](c3ccccc3)N1[C@@H]2c1ccccc1OCCO",
    "label_value": "class 1"
  }
]

Evaluate N#Cc1ccc(NN2C(C(O)CCc3ccccc3)C=CC3C(=O)N(c4ccccc4)C(=O)C32)cc1 (centres undefined) : z-score at minimum 0.02?
class 0

Given the entry Cc1ccc(S[C@]2(C(=O)NC(C)C)CC(=O)N(Cc3cc(C(F)(F)F)cc(C(F)(F)F)c3)[C@@H]2c2ccc(CO)cc2I)cc1 , answer whether its z-score meets or surpasses 0.02.
class 0

API: above_or_equal(metric=z-score, cutoff=0.02) for item CCOC(=O)C[C@H]1[C@H](OC(=O)Cc2ccc3c(c2)OCO3)[C@@H](NC(=O)c2ccc3ccccc3c2)c2cc(OCCCO)ccc2N1C(=O)Cc1ccc(OC)cc1
class 1

z-score >= 0.02 for C=CCN(C(=O)C1N(c2ccc(CCO)cc2)C(=O)C2C(C(=O)O)C3C=CC21O3)C(C)(C)C (centres undefined) ?
class 0

z-score >= 0.02 for C=CCN1C(=O)[C@]2(O[C@H](CCn3cc(CCO)nn3)[C@@H]([Si](C)(C)c3ccc(OC)cc3)[C@@H]2C)c2cc(NC(=O)c3ccc(OC)cc3)ccc21 ?
class 1

Has Cc1ccc(S[C@]2(C(=O)NC(C)C)CC(=O)N(C3Cc4ccccc4C3)[C@@H]2c2ccc(CO)cc2)cc1 a recorded z-score greater than or equal to 0.02?
class 0

Can C[N+](C)(C)CCCCNC(=O)[C@H]1C[C@H]2C(=O)NCC(=O)N2[C@H]1c1cccc(OCCO)c1 be said to have z-score at or above 0.02?
class 1

Determine whether this molecule has z-score no lower than 0.02: COCC(=C=CC[C@H](O)c1ccc(OCCO)cc1)C[C@H](O)c1ccccn1
class 1

====

Test system: glycogen synthase kinase-3 (GSK3A per assay name; protocol says GSK3B)
Assay: GSK3 binders on small-molecule microarrays, primary screen, biochemical, small-molecule microarray, 635 nm fluorescence, GSK3A (AID 1103); further: the record names both GSK3A and GSK3B
Details: small-molecule microarray binding, fluorescence 635 nm; higher = more signal
readout_name: composite z-score
Reply briefly: the number, and no unit.

[
  {
    "compound": "O=C1O[C@@H](c2ccccc2)[C@@H](c2ccccc2)N2[C@@H](c3ccccc3OCCO)[C@]3(C(=O)Nc4ccc(C#CC5=CCCCC5)cc43)[C@@H](C(=O)O)[C@H]12",
    "readout_name": "composite z-score",
    "observed_measurement": 1.04
  },
  {
    "compound": "CCC1=C2CN(Cc3ccccc3Br)[C@@H]([C@@H](O)Cc3ccccc3)C2C=CCC1 (some centres not stated)",
    "readout_name": "composite z-score",
    "observed_measurement": 0.6
  },
  {
    "compound": "Cc1ccc(S(=O)(=O)N[C@H]2COC(=O)CC=C[C@H](C)COC(=O)N[C@@H](C)C(=O)CC=C[C@@H]2C)cc1",
    "readout_name": "composite z-score",
    "observed_measurement": 0.604
  },
  {
    "compound": "C[N+](C)(C)CCCC[C@@H]1NC(=O)[C@H]2C[C@@H](C(=O)NCc3ccc(F)cc3)[C@@H](c3cccc(OCCO)c3)N2C1=O",
    "readout_name": "composite z-score",
    "observed_measurement": 0.519
  },
  {
    "compound": "CCOC(=O)[C@H]1C/C=C/C[C@H](C(=O)OCC)C(=O)O[C@H]2[C@@H](OC)O[C@H](CO)[C@@H](OC(=O)Nc3ccc(Br)cc3)[C@@H]2OC1=O",
    "readout_name": "composite z-score",
    "observed_measurement": 1.02
  },
  {
    "compound": "O=C(NCC(O)CO)[C@]1(Cc2ccccc2)N=C(c2ccc(OCCCO)cc2)O[C@@H]1c1ccccc1 (some centres not stated)",
    "readout_name": "composite z-score",
    "observed_measurement": -0.0255
  }
]

CN1C(=O)C2C=CC(C(O)c3ccc(N(C)C)cc3)N(Nc3ccc([N+](=O)[O-])cc3[N+](=O)[O-])C2C1=O (configuration not stated) has a reported composite z-score of 1.2
